- tested-system: T1, Cynomolgus GPRC5D (Cynomolgus, UniProt Q9NZD1 1-343 (human entry))
- T1 construct: Full length, on stably transfected cells (HEK293-cyGPRC5D, CHO-cyGPRC5D); also called cyGPRC5D
- T1 chain: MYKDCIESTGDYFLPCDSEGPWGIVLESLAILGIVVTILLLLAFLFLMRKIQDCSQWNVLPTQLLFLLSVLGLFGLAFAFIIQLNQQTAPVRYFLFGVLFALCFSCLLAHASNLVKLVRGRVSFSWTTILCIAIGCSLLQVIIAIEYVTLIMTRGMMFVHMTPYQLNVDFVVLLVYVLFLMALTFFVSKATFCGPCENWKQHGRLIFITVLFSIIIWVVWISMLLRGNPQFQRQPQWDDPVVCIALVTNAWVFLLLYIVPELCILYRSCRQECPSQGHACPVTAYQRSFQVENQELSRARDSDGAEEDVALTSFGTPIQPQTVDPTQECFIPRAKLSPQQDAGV
- assay-overview: flow cytometry on CHO-cyGPRC5D cells

binder | binding result
anti-GPRC5D chimeric antibody 4B1 (antibody, V domains shown) VH: QAYLQQSGAELVRSGASVKMSCKASGYTFTSYNMHWVKQTPGQGLEWIGYIYPGNGGTNYNQNFKGKATLTADTSSSTAYMQISSLTSEDSAVYFCARGYGYRYWYFDVWGAGTTVTVSS VL: QIVLTQSPAIMSASPGEKVTMTCSASSSVSYMHWYQQKSGTSPKRWIYDTSKLASGVPVRFSGSGSGTSYSLTISSMEAEDAATYYCQQWSNYPPTFGSGTKLEIK | binds
